test system: Rattus norvegicus; assay: Change in systolic arterial blood pressure in renal artery ligated hypertensive rats, orally dosed at 10 mg/kg; type: functional; details: route oral
Reported Change in blood pressure by item:

chemical_smiles: CCCc1nc(C)n2nc(S(N)(=O)=O)nc2c1Cc1ccc(-c2ccccc2-c2nn[nH]n2)cc1
Change in blood pressure / mmHg: -61.3
--
chemical_smiles: CCCc1nc(C)n2ncnc2c1Cc1ccc(-c2ccccc2-c2nn[nH]n2)cc1
Change in blood pressure / mmHg: -89.7
--
chemical_smiles: CCCc1nc(C)n2c(O)nnc2c1Cc1ccc(NC(=O)c2ccccc2S(=O)(=O)O)cc1
Change in blood pressure / mmHg: -18.3
--
chemical_smiles: CCCc1nc(SC)n2c(O)nnc2c1Cc1ccc(-c2ccccc2-c2nn[nH]n2)cc1
Change in blood pressure / mmHg: -15.6
--
chemical_smiles: CCCc1nc(C)n2nc(C(F)(F)F)nc2c1Cc1ccc(-c2ccccc2-c2nn[nH]n2)cc1
Change in blood pressure / mmHg: -11.8
--
chemical_smiles: CCCc1nc(C)n2nc(N)nc2c1Cc1ccc(-c2ccccc2-c2nn[nH]n2)cc1
Change in blood pressure / mmHg: -77.2
--
chemical_smiles: CCCc1nc(C)n2nc(NC)nc2c1Cc1ccc(-c2ccccc2-c2nn[nH]n2)cc1
Change in blood pressure / mmHg: -65.3
--
chemical_smiles: CCCc1nc(C)n2c(=O)n(C)nc2c1Cc1ccc(-c2ccccc2-c2nn[nH]n2)cc1
Change in blood pressure / mmHg: -48.8
--
chemical_smiles: CCCc1nc(COC)n2nc(C)nc2c1Cc1ccc(-c2ccccc2-c2nn[nH]n2)cc1
Change in blood pressure / mmHg: -44.4
--
chemical_smiles: CCCc1nc(CO)n2nc(C)nc2c1Cc1ccc(-c2ccccc2-c2nn[nH]n2)cc1
Change in blood pressure / mmHg: -21.4
--
chemical_smiles: CCCc1nc(C)n2c(S)nnc2c1Cc1ccc(-c2ccccc2-c2nn[nH]n2)cc1
Change in blood pressure / mmHg: -90.2
--
chemical_smiles: CCCc1nc(C)n2nc(CC(=O)OCC)nc2c1Cc1ccc(-c2ccccc2-c2nn[nH]n2)cc1
Change in blood pressure / mmHg: -84
--
chemical_smiles: CCCc1ncn2ncnc2c1Cc1ccc(-c2ccccc2-c2nn[nH]n2)cc1
Change in blood pressure / mmHg: -20
--
chemical_smiles: CCCc1nc(C)n2nc(CO)nc2c1Cc1ccc(-c2ccccc2-c2nn[nH]n2)cc1
Change in blood pressure / mmHg: -62.5
--
chemical_smiles: CCCc1nc(C)n2nc(S(=O)(=O)N(C)C)nc2c1Cc1ccc(-c2ccccc2-c2nn[nH]n2)cc1
Change in blood pressure / mmHg: -7.2
--
chemical_smiles: CCCc1nc(C)n2nc(S)nc2c1Cc1ccc(-c2ccccc2-c2nn[nH]n2)cc1
Change in blood pressure / mmHg: -57.8
--
chemical_smiles: CCCc1nc(C)n2nc(S(=O)(=O)NC)nc2c1Cc1ccc(-c2ccccc2-c2nn[nH]n2)cc1
Change in blood pressure / mmHg: -37.2
--
chemical_smiles: CCCc1nc(C)n2nc(C(=O)O)nc2c1Cc1ccc(-c2ccccc2-c2nn[nH]n2)cc1
Change in blood pressure / mmHg: -36.4
--
chemical_smiles: CCCc1nc(C)n2nc(SCC(=O)OCC)nc2c1Cc1ccc(-c2ccccc2-c2nn[nH]n2)cc1
Change in blood pressure / mmHg: -26.4
--
chemical_smiles: CCCc1nc(C)n2nc(C(=O)OCC)nc2c1Cc1ccc(-c2ccccc2-c2nn[nH]n2)cc1
Change in blood pressure / mmHg: -76.7
--
chemical_smiles: CCCc1nc(C)n2c(=O)n(CC(=O)OCC)nc2c1Cc1ccc(-c2ccccc2-c2nn[nH]n2)cc1
Change in blood pressure / mmHg: -71.7
--
chemical_smiles: CCCCc1nc(C)n2c(S)nnc2c1Cc1ccc(-c2ccccc2-c2nn[nH]n2)cc1
Change in blood pressure / mmHg: -86.3
--
chemical_smiles: CCCc1nc(C)n2nc(OC)nc2c1Cc1ccc(-c2ccccc2-c2nn[nH]n2)cc1
Change in blood pressure / mmHg: -26.2
--
chemical_smiles: CCCc1nc(CO)n2nc(O)nc2c1Cc1ccc(-c2ccccc2-c2nn[nH]n2)cc1
Change in blood pressure / mmHg: -40.6
--
chemical_smiles: CCCCc1nc(Cl)c(CO)n1Cc1ccc(-c2ccccc2-c2nnn[nH]2)cc1
Change in blood pressure / mmHg: -104.2
--
chemical_smiles: CCCc1nc(C)n2c(=O)n(CCO)nc2c1Cc1ccc(-c2ccccc2-c2nn[nH]n2)cc1
Change in blood pressure / mmHg: -67.9
--
chemical_smiles: CCCc1nc(C)n2nc(CC)nc2c1Cc1ccc(-c2ccccc2-c2nn[nH]n2)cc1
Change in blood pressure / mmHg: -69
--
chemical_smiles: CCCCc1nc(C)n2nc(O)nc2c1Cc1ccc(-c2ccccc2-c2nn[nH]n2)cc1
Change in blood pressure / mmHg: -91.5
--
chemical_smiles: CCCc1nc(C)n2c(O)nnc2c1Cc1ccc(-c2ccccc2-c2nn[nH]n2)cc1
Change in blood pressure / mmHg: -87.5
--
chemical_smiles: CCCc1nc(C)n2nc(SC)nc2c1Cc1ccc(-c2ccccc2-c2nn[nH]n2)cc1
Change in blood pressure / mmHg: -32.2
--
chemical_smiles: CCCc1nc(C)n2nc(-c3ccccc3)nc2c1Cc1ccc(-c2ccccc2-c2nn[nH]n2)cc1
Change in blood pressure / mmHg: -48.2
--
chemical_smiles: CCCc1nc(C)n2cnnc2c1Cc1ccc(-c2ccccc2-c2nn[nH]n2)cc1
Change in blood pressure / mmHg: -77.2

Source listed as ChEMBL document CHEMBL1127592.
